- Test system: T-47D breast
- EXPERIMENT_SUMMARY: NCI tumour cell line growth inhibition, 48 h; in the data active = GI50 below about 0.43 µM; inactive = the rest
Please answer using one outcome listed in 1.0 for active, 0.0 for inactive

# MOLECULE, LABEL_VALUE
measured = [
    ("Cc1ncc(C(=O)Nc2ccc(CN3CCN(C)CC3)c(C(F)(F)F)c2)cc1C#Cc1c(N)ncc2ccc(F)cc12", 0.0),
]

Any idea what this test logged for O=C(/C=C/c1cccs1)c1ccc(Cl)cc1Cl ?
0.0

###

Recorded measurements of TGI, one per entry
- Tested on: EKVX NSCLC
- EXPERIMENT_SUMMARY: NCI tumour cell line growth inhibition, 48 h

Below: 3 molecules and their reported TGI.
# MOLECULE, MEASURED_PROPERTY, MEASURED_RESULT
data = [
    ("C=CCNCCN1C(=O)c2ccc3c4c(ccc(c24)C1=O)C(=O)N(CCNCC=C)C3=O", "TGI", "1.51 µM"),
    ("Clc1nc(Cl)c2ncn(C/C=C\\COc3cccc(OC/C=C\\Cn4cnc5c(Cl)nc(Cl)nc54)c3)c2n1", "TGI", "> 100 µM"),
    ("Cc1cc(S(=O)(=O)NC2=NCC(C)NN2)c(S)cc1Cl (stereo not given)", "TGI", "> 100 µM"),
]

I'd like to know its TGI. The molecule in question is O=C(CC1C(=O)Nc2ccccc2S1(=O)=O)Nc1cc(Cl)ccc1Cl (stereo not given)
30 µM

# lookup: TGI of O=C1C(NCCF)=C(Cl)C(=O)c2ncccc21
3.47 µM

Query: TGI; subject: CC(C)(Oc1ccc(Cl)cc1)C(=O)N(C(=O)N1CCN(c2ccccc2)CC1)c1ccccc1
> 100 µM

If you can, please state the reported TGI value of COc1ccc(-c2c(C#N)c(=O)nc(SC)n2C2OCC(OC(C)=O)C(OC(C)=O)C2OC(C)=O)cc1 (stereo not given) .
> 100 µM

###

- System: NCI-H460 lung
Returns: one label drawn from Y (active), N (inactive)

Take a look at these entries with their results.
# COMPOUND, MEASURED_ON, LABEL_VALUE
records = [
    ("Clc1ccc(Nc2nnc(CNc3ccccc3)c3ccccc23)cc1", "NCI-H460 lung", "N"),
    ("COc1ccc(C2C(C#N)=C(N)Oc3c2sc2c(F)cccc32)cc1 (stereo unspecified)", "NCI-H460 lung", "N"),
    ("Cc1ncc(C(=O)Nc2ccc(CN3CCN(C)CC3)c(C(F)(F)F)c2)cc1C#Cc1c(N)ncc2ccc(F)cc12", "NCI-H460 lung", "N"),
    ("NC1CCCCC1N.O=C([O-])c1cc(S(=O)(=O)Nc2cc(S(=O)(=O)[O-])cc3cc(S(=O)(=O)[O-])cc(O)c23)ccc1[O-].[Pt+4]", "NCI-H460 lung", "N"),
    ("CC(=O)OCc1cnc2c3c(nc4ccccc4c13)C(=O)c1cccnc1-2", "NCI-H460 lung", "Y"),
]

Now let's try a different one.
// outcome(item) with item = C/C(=C1\SC(=NCc2cccs2)NC1=O)c1ccc2ncccc2c1
N

###

- Tested on: HCC-2998 colon
- EXPERIMENT_SUMMARY: NCI tumour cell line growth inhibition, 48 h
MEASURED_PROPERTY: TGI

Worked set:
# MOLECULE, TGI
rows = [
    ("C=C1CCC(OC(C)=O)C2(C)C(OC(C)=O)CC3OC3(C)C2C(OC(C)=O)C2C(C)C(=O)OC2C1Cl (centres undefined)", "> 100 µM"),
    ("CC(=O)CC(=O)Nc1ccccc1[N+](=O)[O-]", "> 100 µM"),
    ("COc1ccc2c(c1)OCCCN(C)OC2c1ccccc1 (centres undefined)", "> 100 µM"),
]

Let us move to another entry and its TGI.
// fetch HCC-2998 colon TGI for COC(=O)/C(=N/NC(N)=O)C(C(=O)C(=O)Nc1ccc(C)cc1)c1nc2ccc(C(=O)c3ccccc3)cc2[nH]c1=O (centres undefined)
> 100 µM

###

- System: SF-268 CNS
- EXPERIMENT_SUMMARY: NCI tumour cell line growth inhibition, 48 h
The reader will find reported TGI values listed item by item below.

# COMPOUND, MEASURED_RESULT
data = [
    ("O=C(Nc1ccc2[nH]c3c(-c4ccccc4)nccc3c2c1)c1ccccc1[N+](=O)[O-]", "> 100 µM"),
    ("CCOc1ccccc1N1C(=O)C(=O)C(c2nc3ccccc3s2)C(=O)C1=O", "> 100 µM"),
    ("COc1ccc2oc(=N)c(C(N)=O)cc2c1", "> 100 µM"),
    ("CNC(=O)Oc1ccc(C(=S)Nc2ccc(Br)cc2)cc1", "> 100 µM"),
]

Given CC(C)(C)OC(=O)N1CC(O)O[C@H](c2ccccc2)[C@@H]1c1ccccc1 (some centres undefined) , state its recorded TGI.
77.6 µM

Which TGI value is on record for CN1CCN(CC(=O)N2CCCn3c2nc2ccccc2c3=O)CC1 ?
> 100 µM

###

- System: RXF 393 renal
- EXPERIMENT_SUMMARY: NCI tumour cell line growth inhibition, 48 h
MEASURED_PROPERTY: TGI

# COMPOUND, TGI
measured = [
    ("CC(C)(C)OC(=O)N1CC(O)O[C@H](c2ccccc2)[C@@H]1c1ccccc1 (stereo not given in full)", "30 µM"),
    ("Clc1ccc2c(NCCNC3CCCCC3)ccnc2c1", "27.1 µM"),
    ("O=C(/C=C/c1cccs1)c1ccc(Cl)cc1Cl", "38.4 µM"),
    ("CCCCCCCCCC(CCCC(O)CC(=O)O)OC1OC(COC2OC(C)C(O)C(O)C2O)C(O)C(O)C1OC1OC(CO)C(O)C(O)C1OC1OC(C)C(OC(=O)CC(C)C)C(O)C1O (stereo not given)", "> 60 µM"),
    ("CC(C)c1cc2c(c(O)c1O)[C@@]1(C)CCCC(C)(C)C1=C(O)C2", "2.96 µM"),
    ("NC(N)=N/N=C\\c1ccc(C2CCNCC2)cc1", "> 100 µM"),
]

Could you share which TGI value was measured for CC(C)(Oc1ccc(Cl)cc1)C(=O)N(C(=O)N1CCN(c2ccccc2)CC1)c1ccccc1 ?
> 100 µM

Can you look up the measured TGI of C=C1c2nc3ccccc3n2C=C(c2ccc(OC)cc2)N1c1ccccc1 for me?
> 76.1 µM

Need TGI of O=C(CC(=O)N1N=C(N2c3ccccc3Sc3ccccc32)CC1c1ccccc1)Nc1ccccc1Cl (stereo not given) , thanks.
> 100 µM

Recorded TGI of COc1ccc2c(c1)CCc1c(C(C)=O)c3ccccc3n1C2 , please.
75.4 µM

###

- Test system: OVCAR-3 ovarian
- EXPERIMENT_SUMMARY: NCI tumour cell line growth inhibition, 48 h
Item-by-item account of TGI

Worked examples follow.
# COMPOUND, MEASURED_RESULT
records = [
    ("COC12OCCN(CCO)C1=CC(=O)C1(C)N=NC(C)C12 (stereo unspecified)", "> 100 µM"),
    ("CCOC(=O)Cn1c(=O)[nH]c(=O)c2c1ncn2Cc1ccccc1", "> 100 µM"),
    ("COc1ccc(-c2nc(N)n(C)c2SSc2c(-c3ccc(OC)cc3)nc(N)n2C)cc1", "21.2 µM"),
    ("COc1cc(C2S/C(=C/c3ccccc3)C(=O)N2c2cccc(Cl)c2)cc(OC)c1OC (stereo unspecified)", "> 100 µM"),
    ("O=c1oc2ccc(Br)cc2c(=O)n1-c1ccc(Br)cc1F", "6.62 µM"),
    ("O=C1C(Br)=CC2C1C1C3CCC3C2(Br)C12OCCO2 (stereo unspecified)", "9.88 µM"),
    ("Nc1cccc(C2CCCc3c2[nH]c2ccccc32)c1 (stereo unspecified)", "> 100 µM"),
    ("Cc1ncc(C(=O)Nc2ccc(CN3CCN(C)CC3)c(C(F)(F)F)c2)cc1C#Cc1c(N)ncc2ccc(F)cc12", "1.54 µM"),
    ("O=C(Cc1nc(-c2ccccc2)cc(=O)n1-c1ccccc1Cl)c1ccncc1", "> 100 µM"),
    ("N[C@H]1C[C@@H]1c1ccc(-c2cccc(O)c2)cc1", "> 100 µM"),
]

Dear colleague, I am looking for the recorded TGI of the following compound: CCn1c(-c2nonc2N)nc2c(C#CC(C)(C)O)nc(CN3CCCC3)cc21
> 25 µM

Give its TGI value. Item: Cc1cc2c(=O)cc(-c3cccs3)oc2c(C(=O)O)c1C
> 100 µM

Requested field: TGI. Item: Cc1cc(C)c2c(c1)CC1(Cc3c(ccc(C)c3C)C1=O)C2=O (stereo unspecified)
> 100 µM

May I ask what TGI has been recorded for O=[N+]([O-])c1ccccc1N=Nc1c(O)[nH]c2ccc(S(=O)(=O)O)cc12 ?
> 100 µM

Fill blank: measured TGI of the compound c1ccc(-c2[o+]c(-c3ccccc3)c(-c3ccccc3)c(-c3ccccc3)c2-c2ccccc2)cc1 is ____.
> 100 µM
